Provide the recorded IC50 for the entries that follow.
# targetOrTestSystem: UniProtKB Q2M2I8
# test: biochemical
# conditionParameters: read-out: AAK1 IC50
# Method: The assays were performed in U-bottom 384-well plates. […] The reactions were initiated by the combination of bacterially expressed, GST-Xa-hAAK1 with substrates and test compounds. […] The reactions were analyzed on the Caliper LabChip 3000 (Caliper, Hopkinton, Mass.) by electrophoretic separation of the fluorescent substrate and phosphorylated product. […] Compounds were dissolved at 10 mM in dimethylsulfoxide (DMSO) and evaluated at eleven concentrations. […]
Give just the numeric value; nM need not be written.

Entry COc1cnccc1-c1cc2nc([C@H](N)CC(C)C)[nH]c2cc1OC ; IC50 = 2000

Entry CN[C@H](CC(C)C)c1nc2cc(-c3ccnnc3)ccc2[nH]1 ; IC50 = 428

Entry C/C(=C\C(C)C)c1nc2cc(-c3ccncc3)ccc2o1 ; IC50 = 2310

Entry CC(C)C[C@@H](N)c1nc2cc(F)c(-c3cnco3)cc2[nH]1 ; IC50 = 32

Entry CC(C)C[C@@H](NCC(F)(F)F)c1nc2cc(-c3ccncc3)ccc2[nH]1 ; IC50 = 45

Entry COc1cc(-c2cc3nc([C@H](N)CC(C)C)[nH]c3cc2OC)ccn1 ; IC50 = 2000

Entry COc1cc(-c2ccc3[nH]c([C@H](N)CC(C)C)nc3c2)ccn1 ; IC50 = 171

* * *

Provide the recorded pIC50 for the entries that follow.
# targetOrTestSystem: GST-Xa-hAAK1 (Homo sapiens (Human), UniProt Q2M2I8)
# Sequence (Q2M2I8 whole entry): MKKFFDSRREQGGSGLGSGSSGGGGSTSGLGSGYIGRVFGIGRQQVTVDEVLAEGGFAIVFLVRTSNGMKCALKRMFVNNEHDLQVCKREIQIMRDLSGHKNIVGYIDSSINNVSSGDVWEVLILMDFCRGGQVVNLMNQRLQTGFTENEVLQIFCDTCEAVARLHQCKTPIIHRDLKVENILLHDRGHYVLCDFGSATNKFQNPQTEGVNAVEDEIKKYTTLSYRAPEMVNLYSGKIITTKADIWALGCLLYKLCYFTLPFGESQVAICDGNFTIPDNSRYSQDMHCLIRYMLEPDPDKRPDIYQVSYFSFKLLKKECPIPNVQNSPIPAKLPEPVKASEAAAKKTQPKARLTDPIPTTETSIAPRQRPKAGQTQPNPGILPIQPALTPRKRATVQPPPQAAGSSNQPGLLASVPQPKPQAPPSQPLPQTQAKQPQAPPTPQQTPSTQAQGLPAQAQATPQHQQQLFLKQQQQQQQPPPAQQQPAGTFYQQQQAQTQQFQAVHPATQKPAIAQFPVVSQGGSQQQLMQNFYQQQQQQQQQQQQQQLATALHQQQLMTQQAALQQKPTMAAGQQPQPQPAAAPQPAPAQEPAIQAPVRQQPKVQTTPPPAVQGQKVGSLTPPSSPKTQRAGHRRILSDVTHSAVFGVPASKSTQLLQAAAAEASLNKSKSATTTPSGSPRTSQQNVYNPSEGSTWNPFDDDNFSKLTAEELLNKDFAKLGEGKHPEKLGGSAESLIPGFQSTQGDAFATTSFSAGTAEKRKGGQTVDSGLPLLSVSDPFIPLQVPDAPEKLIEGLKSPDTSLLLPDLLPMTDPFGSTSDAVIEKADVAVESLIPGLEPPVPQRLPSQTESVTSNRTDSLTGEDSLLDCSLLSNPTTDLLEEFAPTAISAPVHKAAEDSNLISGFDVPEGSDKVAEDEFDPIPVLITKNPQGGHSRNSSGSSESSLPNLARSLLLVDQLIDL
# test: biochemical
# conditionParameters: ATP 22 μM; GST-Xa-hAAK1 3.5 nM; room temperature for 3 hours; Caliper LabChip 3000; read-out: AAK1 IC50
# reply with the number alone; pIC50 is -log10 of concentration in mol/L

Entry CN[C@H](CC(C)C)c1nc2cc(-c3ccnc(N)c3)ccc2[nH]1 ; pIC50 = 8.15

Entry COc1cc2[nH]c([C@H](N)C3CCCCC3)nc2cc1-c1cnco1 ; pIC50 = 7.80

Entry Cc1n[nH]c(C)c1-c1ccc2[nH]c([C@H](N)CC(C)C)nc2c1 ; pIC50 = 7.39

* * *

# targetOrTestSystem: GST-Xa-hAAK1 (Homo sapiens (Human), UniProt Q2M2I8)
# test: biochemical
# conditionParameters: ATP 22 μM; GST-Xa-hAAK1 3.5 nM; room temperature for 3 hours; Caliper LabChip 3000; read-out: AAK1 IC50
pIC50: −log10 of the molar value.
So basically: pIC50 at 7 or higher? That is true. Lower than 7? That is false.

In: Check this compound for pIC50 at or above 7: CC(C)C[C@@H](N)c1nc2cc(-c3ccnc(N)c3)ccc2[nH]1 [Example 18]
Out: true

In: Check this compound for pIC50 at or above 7: COc1cc(-c2cnco2)cc2nc([C@H](N)CC(C)C)[nH]c12 [Example 21]
Out: true

In: Check this compound for pIC50 at or above 7: COc1cc(-c2cc(OC)c3[nH]c([C@H](N)CC(C)C)nc3c2)ccn1 [Example 24]
Out: false

In: Check this compound for pIC50 at or above 7: COc1cc(-c2ccncc2)cc2[nH]c(CCC(C)C)nc12 [Example 25]
Out: false
